Entry source: paper PMC10786891

Target: T1, EsCas13d, nuclease-dead (Eubacterium siraeum, UniProt B0MS50, R295A;H300A;R849A;H854A)
T1 sequence: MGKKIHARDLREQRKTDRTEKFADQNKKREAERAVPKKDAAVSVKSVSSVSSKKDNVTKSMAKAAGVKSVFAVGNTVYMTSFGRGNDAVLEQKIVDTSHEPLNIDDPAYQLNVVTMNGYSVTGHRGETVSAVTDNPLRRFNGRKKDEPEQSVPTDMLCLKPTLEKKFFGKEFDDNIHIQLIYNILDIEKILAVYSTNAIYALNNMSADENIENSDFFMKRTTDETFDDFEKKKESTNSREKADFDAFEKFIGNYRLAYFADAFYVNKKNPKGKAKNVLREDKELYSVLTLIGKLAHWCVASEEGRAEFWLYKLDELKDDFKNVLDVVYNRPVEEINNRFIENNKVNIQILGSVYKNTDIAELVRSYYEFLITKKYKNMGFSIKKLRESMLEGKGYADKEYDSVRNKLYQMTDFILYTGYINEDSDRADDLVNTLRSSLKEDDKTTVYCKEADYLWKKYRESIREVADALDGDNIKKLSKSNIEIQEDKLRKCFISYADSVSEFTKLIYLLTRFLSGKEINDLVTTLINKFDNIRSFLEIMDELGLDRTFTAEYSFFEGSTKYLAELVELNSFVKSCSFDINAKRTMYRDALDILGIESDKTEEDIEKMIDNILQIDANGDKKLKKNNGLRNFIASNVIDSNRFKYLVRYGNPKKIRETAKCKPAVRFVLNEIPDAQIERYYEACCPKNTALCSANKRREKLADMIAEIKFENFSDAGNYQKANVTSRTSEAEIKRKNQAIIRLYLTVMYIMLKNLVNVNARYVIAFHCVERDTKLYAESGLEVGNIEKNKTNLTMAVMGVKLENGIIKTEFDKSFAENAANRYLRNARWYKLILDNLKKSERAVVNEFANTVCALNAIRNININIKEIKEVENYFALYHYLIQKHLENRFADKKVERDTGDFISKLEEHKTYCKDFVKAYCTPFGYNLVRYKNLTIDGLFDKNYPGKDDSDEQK
Experiment: crRNA (strand 1, pre-loaded); Mg2+; 40 mM Tris-HCl pH 7.5, 150 mM NaCl, 6 mM MgCl2, 1 mM DTT, 0.1% Tween-20, 0.2 mg/ml BSA; 25 C; 10 min per concentration, then washed
Details: tags: His6-TwinStrep-SUMO cleaved; N-terminal SNAP kept (SNAP-Surface 488); label: 3' end held by stalled T7 RNA polymerase
Binning of Kd into classes: group 1 = under 10 nM, group 2 = from 10 nM up to 50 nM, group 3 = 50 nM and over

{"BINDER": "target 1 insU 3' of 15,insC 3' of 3 (mixed) RNA 1: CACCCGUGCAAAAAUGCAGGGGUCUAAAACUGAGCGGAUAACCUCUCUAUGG RNA 2: GGGAAUGGAUCCACAUCUACGAAUUCGUACCAUAGAGUAGGUUAUCCGCUCCACCGAGAUCGGAAGAGCACACGU", "LABEL CLASS": "group 2"}
{"BINDER": "target 2 MT 5'PFS AGC 3'PFS CGC (mixed) RNA 1: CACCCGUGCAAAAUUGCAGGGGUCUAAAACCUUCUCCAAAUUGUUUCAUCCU RNA 2: GGGAAUGGAUCCACAUCUACGAAUUCAGCAGGAUGAAACAAUUUGGAGAAGCGCAGAUCGGAAGAGCACACGU", "LABEL CLASS": "group 1"}
{"BINDER": "target 2 MT 5'PFS AGA 3'PFS CUU (mixed) RNA 1: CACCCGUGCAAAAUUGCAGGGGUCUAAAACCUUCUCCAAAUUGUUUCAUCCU RNA 2: GGGAAUGGAUCCACAUCUACGAAUUCAGAAGGAUGAAACAAUUUGGAGAAGCUUAGAUCGGAAGAGCACACGU", "LABEL CLASS": "group 1"}
{"BINDER": "target 2 MT 5'PFS GGA 3'PFS UAG (mixed) RNA 1: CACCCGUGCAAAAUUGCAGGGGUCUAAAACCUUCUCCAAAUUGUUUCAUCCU RNA 2: GGGAAUGGAUCCACAUCUACGAAUUCGGAAGGAUGAAACAAUUUGGAGAAGUAGAGAUCGGAAGAGCACACGU", "LABEL CLASS": "group 1"}
{"BINDER": "target 1 insU 3' of 21,insG 3' of 21 (mixed) RNA 1: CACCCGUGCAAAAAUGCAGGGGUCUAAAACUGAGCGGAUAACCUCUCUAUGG RNA 2: GGGAAUGGAUCCACAUCUACGAAUUCGUACCUGAUAGAGAGGUUAUCCGCUCACCGAGAUCGGAAGAGCACACGU", "LABEL CLASS": "group 3"}
{"BINDER": "target 1 C7U,G17C (mixed) RNA 1: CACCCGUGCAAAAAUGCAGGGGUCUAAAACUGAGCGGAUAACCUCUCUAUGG RNA 2: GGGAAUGGAUCCACAUCUACGAAUUCGUACCAUACAGAGGUUAUUCGCUCACCGAGAUCGGAAGAGCACACGU", "LABEL CLASS": "group 3"}
{"BINDER": "target 3 G19U,U22A (mixed) RNA 1: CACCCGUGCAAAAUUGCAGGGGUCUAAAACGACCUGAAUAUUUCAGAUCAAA RNA 2: GGGAAUGGAUCCACAUCUACGAAUUCGUUAUUUAUCUGAAAUAUUCAGGUCUGCAGAUCGGAAGAGCACACGU", "LABEL CLASS": "group 3"}
{"BINDER": "target 1 insG 3' of 10,insA 3' of 7 (mixed) RNA 1: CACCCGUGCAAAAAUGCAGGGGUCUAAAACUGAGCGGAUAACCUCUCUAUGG RNA 2: GGGAAUGGAUCCACAUCUACGAAUUCGUACCAUAGAGAGGUUGAUCACGCUCACCGAGAUCGGAAGAGCACACGU", "LABEL CLASS": "group 2"}
{"BINDER": "target 1 insG 3' of 19,insA 3' of 15 (mixed) RNA 1: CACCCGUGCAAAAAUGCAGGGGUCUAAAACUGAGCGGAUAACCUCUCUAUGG RNA 2: GGGAAUGGAUCCACAUCUACGAAUUCGUACCAUGAGAGAAGGUUAUCCGCUCACCGAGAUCGGAAGAGCACACGU", "LABEL CLASS": "group 3"}
{"BINDER": "target 2 MT 5'PFS CGC 3'PFS AGC (mixed) RNA 1: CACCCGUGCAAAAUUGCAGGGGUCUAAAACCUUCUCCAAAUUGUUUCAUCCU RNA 2: GGGAAUGGAUCCACAUCUACGAAUUCCGCAGGAUGAAACAAUUUGGAGAAGAGCAGAUCGGAAGAGCACACGU", "LABEL CLASS": "group 1"}
{"BINDER": "target 1 C6U,A9C (mixed) RNA 1: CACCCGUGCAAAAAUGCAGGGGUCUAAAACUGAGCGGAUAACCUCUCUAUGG RNA 2: GGGAAUGGAUCCACAUCUACGAAUUCGUACCAUAGAGAGGUUCUCUGCUCACCGAGAUCGGAAGAGCACACGU", "LABEL CLASS": "group 2"}
{"BINDER": "target 1 MT 5'PFS GUC 3'PFS UCU (mixed) RNA 1: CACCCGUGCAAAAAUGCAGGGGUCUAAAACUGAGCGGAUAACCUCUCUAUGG RNA 2: GGGAAUGGAUCCACAUCUACGAAUUCGUCCCAUAGAGAGGUUAUCCGCUCAUCUAGAUCGGAAGAGCACACGU", "LABEL CLASS": "group 2"}
{"BINDER": "target 1 insG 3' of 21,insG 3' of 2 (mixed) RNA 1: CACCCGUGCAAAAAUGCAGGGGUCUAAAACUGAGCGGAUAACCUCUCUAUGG RNA 2: GGGAAUGGAUCCACAUCUACGAAUUCGUACCGAUAGAGAGGUUAUCCGCUCGACCGAGAUCGGAAGAGCACACGU", "LABEL CLASS": "group 3"}
